assayRemarks: Toxicity liver stage against HepG2, at 10uM
Type: cell-based
Design: test concentration 10 uM, cell line HepG2-A16-CD81EGFP
testSettings: human, HepG2-A16-CD81EGFP cells; read-out: INHIBITION
Listed below: cytotoxicity at 10 µM values for each entry.
Report only the number, with the unit % understood.

Below: 8 compounds and their reported cytotoxicity at 10 µM.
### Prompt What value of cytotoxicity at 10 µM has been recorded for this entry: C[C@@H]1C[C@@H]2CCN(Cc3ccncc3)C[C@H]2O1
### Response -72.9

### Prompt Now this one: Cc1cc(C2CCCN2c2ncc(C(N)=O)cc2Cl)no1 (centres undefined)
### Response -4.57

### Prompt Now this one: Cc1csc2c(=O)n(CCSc3cnn[nH]3)cnc12
### Response -3.61

### Prompt Now this one: Cc1ncsc1CCNC(=O)Cn1nc(C)n(Cc2ccccc2)c1=O
### Response 7.48

### Prompt Now this one: NC(=O)c1c(-c2ccc(Cl)cc2Cl)csc1NC(=O)CCC(=O)O
### Response 8.32

### Prompt Now this one: Cc1cc(C)nc(N(C)CCn2ccnc2C)n1
### Response -5.42

### Prompt Now this one: Cc1ccc(CN2CC3(CCN(C(=O)C4CC4)CC3)CC2C(=O)O)o1 (centres undefined)
### Response 1.52

### Prompt Now this one: O=C1N(C2CCCCC2)C[C@H]2CN(C3CCC3)CCN12
### Response 6.44

Further cases:
### Prompt What value of cytotoxicity at 10 µM has been recorded for this entry: Cc1nc(C)c(-c2ccn(CC(=O)Nc3cnn(C)n3)n2)s1
### Response 74
